assay_system: alpha2A receptor (Homo sapiens)
Sequence (P08913 whole entry): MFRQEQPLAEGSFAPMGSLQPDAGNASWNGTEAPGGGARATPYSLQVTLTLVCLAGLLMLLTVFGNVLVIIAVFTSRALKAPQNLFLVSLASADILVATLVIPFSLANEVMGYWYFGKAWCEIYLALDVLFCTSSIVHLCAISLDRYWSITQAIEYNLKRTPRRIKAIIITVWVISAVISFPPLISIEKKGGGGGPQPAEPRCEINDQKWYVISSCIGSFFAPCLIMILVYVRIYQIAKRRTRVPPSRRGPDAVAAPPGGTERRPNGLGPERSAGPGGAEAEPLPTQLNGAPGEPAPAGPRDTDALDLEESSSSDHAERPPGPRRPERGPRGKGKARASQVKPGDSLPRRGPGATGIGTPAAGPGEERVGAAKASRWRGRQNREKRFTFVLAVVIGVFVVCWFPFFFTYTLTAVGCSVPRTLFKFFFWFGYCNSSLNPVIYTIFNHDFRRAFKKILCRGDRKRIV
method_summary: Alpha2A agonistic activity in vitro
Type: cell-based
assay_context: in vitro
Give rule met when the value for Alpha2A Intrinsic Activity is at least 0.6. Give rule not met when it is less.

Please tell me: is the compound Cc1cc(Br)cc2c1CCOC2C1=NCCN1 (centres unmarked) [Example 60] at or over 0.6 in terms of Alpha2A Intrinsic Activity?
rule met

Please tell me: is the compound CC1Cc2c(Br)cccc2C(C2=NCCN2)O1 (centres unmarked) [Example 29] at or over 0.6 in terms of Alpha2A Intrinsic Activity?
rule met

Please tell me: is the compound CCc1cccc2c1CC(C)OC2C1=NCCN1 (centres unmarked) [Example 39] at or over 0.6 in terms of Alpha2A Intrinsic Activity?
rule met

Please tell me: is the compound CC1(C2=NCCN2)OCCc2c(C(O)C(C)(C)C)cccc21 (single isomer, unassigned) [Example 13] at or over 0.6 in terms of Alpha2A Intrinsic Activity?
rule met

Please tell me: is the compound CC[C@@H]1Cc2c(C)cccc2C(C2=NCCN2)O1 (some centres unmarked) [Example 48] at or over 0.6 in terms of Alpha2A Intrinsic Activity?
rule not met

Please tell me: is the compound Cc1cc(C)c2c(c1)C(C1=NCCN1)OCC2 (centres unmarked) [Example 59] at or over 0.6 in terms of Alpha2A Intrinsic Activity?
rule met

Please tell me: is the compound Cc1cccc2c1C[C@H](C)OC2C1=NCCN1 (some centres unmarked) [Example 37] at or over 0.6 in terms of Alpha2A Intrinsic Activity?
rule met

Please tell me: is the compound Cc1cccc2c1CC(CC(F)(F)F)OC2C1=NCCN1 (single isomer, unassigned) [Example 86] at or over 0.6 in terms of Alpha2A Intrinsic Activity?
rule not met

Please tell me: is the compound Fc1cccc2c1CCOC2C1=NCCN1 (centres unmarked) [Example 42] at or over 0.6 in terms of Alpha2A Intrinsic Activity?
rule met

Please tell me: is the compound COc1cccc2c1CCOC2C1=NCCN1 (centres unmarked) [Example 17] at or over 0.6 in terms of Alpha2A Intrinsic Activity?
rule met

Please tell me: is the compound COc1cccc2c1CCSC2C1=NCCN1 (centres unmarked) [Example 70] at or over 0.6 in terms of Alpha2A Intrinsic Activity?
rule not met
